Origin of values: the NIST ThermoML archive (doi:10.1016/j.jct.2015.07.042)

Measurement description: activity coefficient (dimensionless); of the first substance listed, at infinite dilution; xn = mol fraction of the nth substance listed
Cond: 388.15 K; 101 kPa; Liquid; Chromatography; x1 = 0
Please respond with reported activity coefficient for every item in the list.

Problem: Which activity coefficient value belongs to CCc1ccccc1 [ethylbenzene] + CCCCn1cc[n+](C)c1.COP(=O)([O-])OC ?
Solution: 6.26

Problem: Same read-out for COC(C)=O [methyl ethanoate] + CCCCn1cc[n+](C)c1.COP(=O)([O-])OC ?
Solution: 2.85

Problem: Same read-out for CCC[N+](=O)[O-] [1-nitropropane] + CCCCn1cc[n+](C)c1.[Cl-] ?
Solution: 2.8

Problem: Same read-out for CC(C)OC(C)C [diisopropyl ether] + CCCCn1cc[n+](C)c1.COP(=O)([O-])OC ?
Solution: 14.1

Problem: Same read-out for C#CCCCCCC [1-octyne] + CCCCn1cc[n+](C)c1.CS(=O)(=O)[O-] ?
Solution: 20.4

Problem: Same read-out for C#CCCCC [1-hexyne] + CCCCn1cc[n+](C)c1.CS(=O)(=O)[O-] ?
Solution: 9.64

Problem: Same read-out for CCOC(C)(C)C [2-ethoxy-2-methylpropane] + CCCCn1cc[n+](C)c1.CS(=O)(=O)[O-] ?
Solution: 36.6

Problem: Same read-out for CCCCCCCCC [nonane] + CCCCn1cc[n+](C)c1.CS(=O)(=O)[O-] ?
Solution: 223

----------
Measurement description: activity coefficient (dimensionless); of the first substance listed, at infinite dilution; xn = mol fraction of the nth substance listed
Cond: 358.15 K; 101 kPa; Liquid; Chromatography; x1 = 0
Binary label based on activity coefficient with cut-off 20: below gives MET, not below gives NOT MET.

Problem: activity coefficient under 20? Item: C1CCCCC1 [cyclohexane] + CCCCn1cc[n+](C)c1.CS(=O)(=O)[O-]
Solution: NOT MET

Problem: Same read-out for C#CCCCCC [1-heptyne] + CCCCn1cc[n+](C)c1.CS(=O)(=O)[O-] ?
Solution: MET

Problem: Same read-out for c1ccccc1 [benzene] + CCCCn1cc[n+](C)c1.CS(=O)(=O)[O-] ?
Solution: MET

Problem: Same read-out for c1ccccc1 [benzene] + CCCCn1cc[n+](C)c1.[Cl-] ?
Solution: MET

Problem: Same read-out for CCC[N+](=O)[O-] [1-nitropropane] + CCCCn1cc[n+](C)c1.COP(=O)([O-])OC ?
Solution: MET

Problem: Same read-out for C1COCCO1 [1,4-dioxane] + CCCCn1cc[n+](C)c1.COP(=O)([O-])OC ?
Solution: MET

Problem: Same read-out for Cc1ccccc1C [1,2-dimethylbenzene] + CCCCn1cc[n+](C)c1.CS(=O)(=O)[O-] ?
Solution: MET

Problem: Same read-out for CCCCCCCCC [nonane] + CCCCn1cc[n+](C)c1.CS(=O)(=O)[O-] ?
Solution: NOT MET

Problem: Same read-out for C=CCCCC [hex-1-ene] + CCCCn1cc[n+](C)c1.CS(=O)(=O)[O-] ?
Solution: NOT MET

Problem: Same read-out for C1=CCCCC1 [cyclohexene] + CCCCn1cc[n+](C)c1.CS(=O)(=O)[O-] ?
Solution: MET

Problem: Same read-out for C=CCCCCCCCC [1-decene] + CCCCn1cc[n+](C)c1.[Cl-] ?
Solution: NOT MET

Problem: Same read-out for CC(C)=O [acetone] + CCCCn1cc[n+](C)c1.COP(=O)([O-])OC ?
Solution: MET

Problem: Same read-out for C1=CCCCC1 [cyclohexene] + CCCCn1cc[n+](C)c1.COP(=O)([O-])OC ?
Solution: MET

Problem: Same read-out for CCOC(C)=O [ethyl acetate] + CCCCn1cc[n+](C)c1.COP(=O)([O-])OC ?
Solution: MET

Problem: Same read-out for CCCCCCCCC [nonane] + CCCCn1cc[n+](C)c1.COP(=O)([O-])OC ?
Solution: NOT MET

Problem: Same read-out for Cc1ccc(C)cc1 [1,4-dimethylbenzene] + CCCCn1cc[n+](C)c1.CS(=O)(=O)[O-] ?
Solution: MET

Problem: Same read-out for c1ccsc1 [thiophene] + CCCCn1cc[n+](C)c1.[Cl-] ?
Solution: MET

Problem: Same read-out for C=COC(C)=O [vinyl acetate] + CCCCn1cc[n+](C)c1.COP(=O)([O-])OC ?
Solution: MET

Problem: Same read-out for C1CCCC1 [cyclopentane] + CCCCn1cc[n+](C)c1.CS(=O)(=O)[O-] ?
Solution: NOT MET
